- target-system: Virion infectivity factor (Human immunodeficiency virus type 1 group M subtype B (isolate BH10)) + Virion infectivity factor (Human immunodeficiency virus type 1 group M subtype B (isolate BRU/LAI)) + Virion infectivity factor (Human immunodeficiency virus type 1 group M subtype B (isolate PCV12)) + Virion infectivity factor (Human immunodeficiency virus type 1 group M subtype B (isolate HXB2)) + DNA dC->dU-editing enzyme APOBEC-3G (Homo sapiens) (UniProt P69720+P69721+P69722+P69723+Q9HC16)
- experiment-description: inhibitors of Vif binding to APOBEC3G peptide, primary screen, biochemical, TR-FRET, GST-Vif 1-94, biotin-A3G peptide, dose response retest (AID 1117319);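 further: Vif residues 1-94 fused to GST binding biotinylated APOBEC3G peptide 110-148; 0% = full assay without inhibitor and 100% = GST in place of GST-Vif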
- assay-context: stronger effect = higher value
Among all 260,000 compounds or so, about 1,500 (0.58%) were called active. About 5% were inconclusive and are not listed. Only a sample is shown. Entries with a potency or affinity are not part of this list.

compound: COc1ccccc1NC(=O)c1ccc(NC(=O)c2cc3c(s2)CCC3)cc1
inhibition (%): -2.47
--
compound: CCOC(=O)Oc1ccc2c(=O)c(Oc3cccc(C)c3)coc2c1
inhibition (%): 0.27
--
compound: O=C1NC(=S)N/C1=C\c1cccc([N+](=O)[O-])c1
inhibition (%): 0.47
--
compound: CC(=O)c1cccc(CN2CCN(Cc3ccc(C)cc3)C(CCO)C2)c1 (stereo not given)
inhibition (%): -2.61
--
compound: O=C1NC(=S)N/C1=C/c1cc([N+](=O)[O-])ccc1O
inhibition (%): 0.15

Source of measurements: PubChem BioAssay AID1117319
